Attribution: the EternaBench riboswitch data

# Tested on: MS2 coat protein
# assay.text: apparent Kd, MS2 coat protein; higher = weaker binding; RNA-MaP array
# stated.conditions: designed as: ON switch for flavin mononucleotide; no ligand
Lab note: anything with apparent Kd at or over 80 nM counts as satisfied; the rest go in not satisfied.

In [3]: df
Out[3]:
                                        seq          class
0  AAAUAAGAGGAGAAGGGCAAAAUGUCGAACCGAGCAGGAUAUCCACAGAACAUGAGGAUCACCCAUGUGGUCAAACAGUACAAA  not satisfied
1  CCUCAAAUGACAUGAGGAUCACCCAUGUAGCGCACAACCGCUAGAAGGACGACAAAGUCUUAUGCGUAGGAUAUAGCGAGCGCG      satisfied
2  CAUAGAGCUAAGAAGGCGUACGGAGACAGCAUACGAGGAUAUUAACGUCCAUGAACAUGAGGAUCACCCAUGUCGAAAACCAAA  not satisfied
3  AGAGAAAAGUAACAUGAGGAUCACCCAUGUAUCCCACGAGUCAGAAGGAGCGGGUUGAUACGAGGCUAGGAUAUGAAGAGUCAU      satisfied
4  AAUUUUAUGAAAGGAUAUGUGUGCUGGUCCAUCACAGAAGGUUCAAGGAGAUGGAUAUAACGACAUGAGGAUCACCCAUGUGCU  not satisfied
5  GGUUGACCUGAGGAACAUGAGGAUCACCCAUGUGUUAGCGGAAAGGAUAUUCGAUUGCACGUUAAGAAGAAGGUUCCAACGUUA  not satisfied
